meta.source: PubChem BioAssay

Measured composite z-score values are reported for all entries that follow.
# System: Inhibin beta A chain (activin A)
# assay: small molecules binding activin A – biochemical, small-molecule microarray, 635 nm fluorescence scan, primary screen (AID 1107);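 also: mouse activin A protein probed at 4.33 µg/mL on printed slides; score merges bound-protein fluorescence near 667 nm with spot signal-to-noise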
# statedConditions: INHBA, higher = more signal
Number, no unit, nothing else.

As a guide, the following entries are already answered.
molecule	composite z-score
CC1=C2[C@@H](CCc3ccccc3)OB(O)C[C@@H]2[C@@H]2C(=O)N(Cc3ccccc3)C(=O)[C@@H]2C1	0.654
C=C(COC)/C(=C/C[C@H](OC(=O)c1ccncc1)c1ccc(CO)o1)c1cnc2ccccc2c1	1.81

### Prompt Form entry - test system: Inhibin beta A chain (activin A); read-out: composite z-score; molecule: "CCOC(=O)C=Cc1cccc(C)c1O"
### Response 0.39

### Prompt Next record, please: "CN(C)C(=O)[C@]1(CCC(=O)OC(C)(C)C)N=C(c2ccc(OCCCO)cc2)O[C@@H]1c1ccccc1CN=[N+]=[N-]"
### Response 0.418

### Prompt Next record, please: C=CCC(OC(C)=O)[C@@H]1[C@@H](N(Cc2cccc3ccccc23)C(=O)Cc2ccc(OC)cc2)c2cc(OCCCO)ccc2N1C(=O)c1ccc(-c2ccccc2)cc1 (stereo partly specified)
### Response 1.43

### Prompt Next record, please: "CCC#CCN(Cc1ccccc1Br)[C@H](/C=C/C1CC1)[C@@H](O)Cc1ccccc1"
### Response 0.384

----------
# assay: small molecules captured by biotinylated probe aFST – biochemical, small-molecule microarray, fluorescence 635/667, stem cell growth factor project, primary screen (AID 1086);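 also: score merges 667 nm fluorescence with signal-to-noise of each printed compound spot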
# statedConditions: higher = more signal
Output 1 (yes) for composite z-score not less than 0.8; output 0 (no) otherwise.

molecule	assignedClass
COc1ccc([Si](C)(C)[C@@H]2[C@@H](CCO)O[C@]3(C(=O)N(Cc4ccccc4)c4ccc(N5C(=O)c6cccc7cccc5c67)cc43)[C@H]2C)cc1	0 (no)
C[N+](C)(C)CCCCCCNC(=O)[C@@H]1C[C@@H]2C(=O)N3CCC[C@H]3C(=O)N2[C@@H]1c1ccc(O)cc1	0 (no)
C=C(/C(=C/C[C@H](OC(C)=O)c1ccc(CO)o1)c1cnc2ccccc2c1)C(C)C	1 (yes)
CC[C@@H]1O[Si](C(C)C)(C(C)C)c2c1cc(-c1cc(C)c(OC)c(C)c1)nc2-c1ccc(Oc2ccccc2)cc1	0 (no)

### Prompt Determine whether measured composite z-score meets or exceeds 0.8 for "COc1cccc(C)c1NC(=O)O[C@H]1[C@H](OC(=O)Nc2ccccc2-c2ccccc2)[C@H](OC(=O)Nc2ccccc2-c2ccccc2)[C@@H](OC)O[C@@H]1CO"
### Response 1 (yes)

### Prompt Next record, please: "Cc1ccc(F)cc1S(=O)(=O)N[C@@H]1CCN(Cc2ccc(Br)cc2)C1"
### Response 0 (no)

### Prompt Next record, please: "COCCOC(=O)N1C(=O)[C@@]2(c3cc(C#CCCO)ccc31)[C@H](c1ccc(OCCO)cc1)N1[C@H](c3ccccc3)[C@H](c3ccccc3)OC(=O)[C@H]1[C@@H]2C(=O)Nc1nc2ccccc2s1"
### Response 1 (yes)

----------
# System: Plasmodium falciparum Sir2 (PF13_0152, Sir2A)
# assay: Plasmodium falciparum Sir2A binding compounds – biochemical, small-molecule microarray, 635 nm fluorescence, primary screen (AID 1098);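 also: score merges spot fluorescence intensity with its signal-to-noise ratio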
# statedConditions: fluorescence 635 nm, higher = more signal
Measured composite z-score values are reported for all entries that follow.
Number, no unit, nothing else.

As a guide, the following entries are already answered.
compound	recordedMeasurement
CC1CC/C=C\[C@H]2OC34C=CCN(c5ccc6ccccc6c5)C(=O)[C@H]3N(CCCO)C(=O)[C@@H]4C2C(=O)O1 (some centres undefined)	0.0565
O=C1N(CCS(=O)(=O)c2ccccc2)c2ccccc2[C@H]2OC(c3ccc(OCCCO)cc3)=N[C@@]12Cc1ccccc1	1.29
O=C(NCCN1CCOCC1)[C@@H]1c2ccccc2C(=O)N(C2Cc3ccccc3C2)[C@H]1c1ccc(CO)cc1	0.909
COc1ccc([Si](C)(C)[C@H]2[C@H](CC(=O)N(CCO)Cc3ccccc3)O[C@@]3(C(=O)N(C)c4c(Br)cc(C)cc43)[C@@H]2C)cc1	0.827
CCCCNC(=O)c1ccc(C#CC(C)(C)C)c(OC(C)=O)c1	0.311
C#CCN([C@@H](Cc1ccccc1)C(=O)OC)[C@@H](/C=C/C1CC1)[C@H](O)Cc1ccccc1	-0.437
COc1ccc([Si](C)(C)[C@H]2[C@H](CC(=O)N3Cc4ccccc4C[C@H]3CO)O[C@@]3(C(=O)N(Cc4ccc(N5CCOC5=O)cc4)c4ccccc43)[C@@H]2C)cc1	0.149
[N-]=[N+]=Nc1ccccc1C[C@]1(C(=O)O)COC(c2ccc(OCCCO)cc2)=N1	1.15

Here is another compound to look at.
### Prompt Quick one: composite z-score for "COc1ccc([C@H]2OC[C@@H]3C[C@H](Cc4ccccc4)C(=O)N32)cc1" ?
### Response -0.33
